Experiment: qHTS assay to test for compound auto fluorescence at 460 nm (blue) in HEK293 cells (AID 720678)
Details: blue autofluorescence 405/460 nm; series mostly up to 91.3 µM
Active and inactive are the calls of the source. The call rests on the fitted dose curve; in most records, active means well fitted curve in the direction sought with a large enough effect in the repeat runs; inconclusive means weak or mixed curves; inactive means flat fitted curve, though single readings scatter.
reportedEndpoint: fluorescence, % of triamterene

Below, 4 compounds whose answers are already recorded.
CCCCCCCCCCCC(=O)[O][Sn]([CH2]CCC)([CH2]CCC)[O]C(=O)CCCCCCCCCCC: inactive
O=C(c1ccc(O)cc1)c1ccc(Cl)cc1: inactive
COCCOC(=O)C1=C(C)NC(C)=C(C(=O)OC/C=C/c2ccccc2)C1c1cccc([N+](=O)[O-])c1 (stereo not given): inactive
COc1ccccc1N=Nc1c(S(=O)(=O)O)cc2cc(S(=O)(=O)O)cc(NC(C)=O)c2c1O: inactive

Now turn to the next compound.
Recorded fluorescence, % of triamterene of COc1ccc(C(=O)c2cccc(O)c2)c(OC)c1 , please.
inactive
